target: Inhibitor of nuclear factor kappa-B kinase subunit beta (Homo sapiens); assay: Inhibition of recombinant IKKbeta (unknown origin) using ulight-IkappaomegaBalpha as substrate at 20 uM after 1 hr by LANCE ultra TR-FRET assay relative to control
I would appreciate it if you labelled entries true when inhibition is 40% or higher, otherwise false.

O=C(O)/C=C/c1cnc(-c2ccc(O)c(C34CC5CC(CC(C5)C3)C4)c2)s1
false
Cc1cc(O)c(C23CC4CC(CC(C4)C2)C3)cc1-c1ccc(/C=C/C(=O)O)cc1Cl
false
Cc1cc(O)c(C23CC4CC(CC(C4)C2)C3)cc1-c1ncc(/C=C/C(=O)O)s1
false
COCCOCOc1ccc(C(=O)/C=C/c2ccc(C(=O)O)cc2)cc1C12CC3CC(CC(C3)C1)C2
true
COCCOCOc1cc(C)c(-c2ncc(-c3ccc(C(=O)O)cc3)s2)cc1C12CC3CC(CC(C3)C1)C2
true
COCCOCOc1cc(C)c(-c2ncc(/C=C/C(=O)O)s2)cc1C12CC3CC(CC(C3)C1)C2
false

---

Target: Inhibitor of nuclear factor kappa-B kinase subunit epsilon (Homo sapiens)
Sequence (whole entry): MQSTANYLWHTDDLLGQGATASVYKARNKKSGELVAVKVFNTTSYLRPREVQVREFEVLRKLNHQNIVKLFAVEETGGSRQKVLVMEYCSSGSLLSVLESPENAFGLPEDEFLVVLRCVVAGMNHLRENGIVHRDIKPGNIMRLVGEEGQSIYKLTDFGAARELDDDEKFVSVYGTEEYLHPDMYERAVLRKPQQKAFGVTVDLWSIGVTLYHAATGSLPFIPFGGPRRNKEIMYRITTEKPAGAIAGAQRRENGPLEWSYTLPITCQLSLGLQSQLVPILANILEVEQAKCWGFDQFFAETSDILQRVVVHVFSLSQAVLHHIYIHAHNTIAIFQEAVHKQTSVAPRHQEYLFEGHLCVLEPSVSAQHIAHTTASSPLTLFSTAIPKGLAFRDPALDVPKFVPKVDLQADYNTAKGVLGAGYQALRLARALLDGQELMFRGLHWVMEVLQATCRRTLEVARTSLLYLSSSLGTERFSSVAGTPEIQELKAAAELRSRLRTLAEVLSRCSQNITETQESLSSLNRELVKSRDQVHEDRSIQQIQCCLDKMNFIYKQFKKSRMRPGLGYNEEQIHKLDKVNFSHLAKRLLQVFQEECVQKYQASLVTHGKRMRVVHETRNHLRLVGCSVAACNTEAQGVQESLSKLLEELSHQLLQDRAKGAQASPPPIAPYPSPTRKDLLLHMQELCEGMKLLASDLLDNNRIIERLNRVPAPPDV
Test: Inhibition of recombinant IKKepsilon (unknown origin) using ulight-rpS6 as substrate at 20 uM after 2 hrs by LANCE ultra TR-FRET assay relative to control
Measurement Name: inhibition (%)

COc1nc(-c2ccc(C(=O)O)cc2)cnc1-c1ccc(O)c(C23CC4CC(CC(C4)C2)C3)c1
26.1
COCCOCOc1ccc(-c2ncc(/C=C/C(=O)O)nc2OC)cc1C12CC3CC(CC(C3)C1)C2
9.4
O=C(O)c1ccc(-c2cnc(-c3ccc(O)c(C45CC6CC(CC(C6)C4)C5)c3)s2)cc1
11.6
COCCOCOc1ccc(-c2ncc(-c3ccc(C(=O)O)cc3)s2)cc1C12CC3CC(CC(C3)C1)C2
25.3
Cc1cc(O)c(C23CC4CC(CC(C4)C2)C3)cc1-c1ncc(/C=C/C(=O)O)s1
0
O=C(O)/C=C/c1cnc(-c2ccc(O)c(C34CC5CC(CC(C5)C3)C4)c2)s1
0
Cc1cc(O)c(C23CC4CC(CC(C4)C2)C3)cc1-c1ncc(-c2ccc(C(=O)O)cc2)s1
0

All values here come from ChEMBL document CHEMBL3112476.
